Biological target: EGFR (Homo sapiens)
Construct: endogenous in cells; host or cells: A431 cells (lysate, captured with SUMO1 anti-EGFR antibody)
Sequence (P00533 25-1210): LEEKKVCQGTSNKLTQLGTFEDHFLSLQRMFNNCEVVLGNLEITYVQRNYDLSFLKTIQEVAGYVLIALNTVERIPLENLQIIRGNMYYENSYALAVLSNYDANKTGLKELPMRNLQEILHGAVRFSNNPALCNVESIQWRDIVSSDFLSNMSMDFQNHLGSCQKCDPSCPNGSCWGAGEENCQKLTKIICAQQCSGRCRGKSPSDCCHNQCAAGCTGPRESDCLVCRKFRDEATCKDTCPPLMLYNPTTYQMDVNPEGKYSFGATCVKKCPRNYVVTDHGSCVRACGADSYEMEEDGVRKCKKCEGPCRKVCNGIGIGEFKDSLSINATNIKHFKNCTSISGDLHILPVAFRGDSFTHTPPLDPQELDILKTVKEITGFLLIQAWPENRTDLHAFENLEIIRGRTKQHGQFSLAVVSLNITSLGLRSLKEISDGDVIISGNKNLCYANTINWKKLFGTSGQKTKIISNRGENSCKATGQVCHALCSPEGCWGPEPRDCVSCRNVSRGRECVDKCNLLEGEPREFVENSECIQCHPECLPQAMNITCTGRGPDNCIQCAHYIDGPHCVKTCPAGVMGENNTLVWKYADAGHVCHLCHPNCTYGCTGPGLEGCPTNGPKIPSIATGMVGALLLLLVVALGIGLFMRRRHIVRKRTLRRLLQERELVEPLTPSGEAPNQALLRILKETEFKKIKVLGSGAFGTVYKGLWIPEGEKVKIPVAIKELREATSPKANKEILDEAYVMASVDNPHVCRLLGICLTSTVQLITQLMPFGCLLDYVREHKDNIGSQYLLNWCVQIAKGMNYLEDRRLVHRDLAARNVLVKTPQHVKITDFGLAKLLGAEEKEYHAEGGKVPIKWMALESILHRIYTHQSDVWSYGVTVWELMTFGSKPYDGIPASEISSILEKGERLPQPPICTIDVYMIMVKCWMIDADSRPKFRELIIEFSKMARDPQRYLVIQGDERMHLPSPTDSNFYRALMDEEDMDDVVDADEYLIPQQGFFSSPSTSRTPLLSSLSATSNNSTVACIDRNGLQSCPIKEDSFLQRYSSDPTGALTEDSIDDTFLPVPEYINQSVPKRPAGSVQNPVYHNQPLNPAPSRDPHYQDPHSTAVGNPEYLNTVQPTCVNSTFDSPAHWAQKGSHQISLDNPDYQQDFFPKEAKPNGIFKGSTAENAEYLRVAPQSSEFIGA
Test: Biochemical EGFR Assay
Parameters: concentration or dose not given beside the values
Procedure: This assay measures the in vitro kinase activity of EGFR using ELISA. 1. Corning 96-well Elisa plates (Corning Catalog No. 25805-96). 2. SUMO1 monoclonal anti-EGFR antibody (Biochemistry Lab, SUGEN, Inc.). 3. PBS (Dulbecco's Phosphate-Buffered Saline, Gibco Catalog No. 450-1300EB). 6. […] Mix first two ingredients in about 900 ml dH2O, adjust pH to 4.0 with phosphoric acid. […] The solution should be kept in the dark at 4° C. until ready to use. […] 22. Read assay on Dynatech MR7000 ELISA reader. […]
REPORTED ENDPOINT: Biochem EGFR % Inhibition (P.167) (%)
Just the number in %, nothing appended.

Biochem EGFR % Inhibition (P.167) for `O=C1Nc2c(Br)cc(Br)cc2C1=Cc1cc(F)cc(F)c1` ?
5.0

Biochem EGFR % Inhibition (P.167) for `CNS(=O)(=O)c1ccc2c(c1)C(=Cc1cc(C(F)(F)F)cc(C(F)(F)F)c1)C(=O)N2` ?
8.0

Biochem EGFR % Inhibition (P.167) for `CC(C)(C)c1ccc(C=C2C(=O)Nc3ccc(S(=O)(=O)Nc4ccc(C(F)(F)F)cc4)cc32)cc1` ?
−5.0

Biochem EGFR % Inhibition (P.167) for `Cc1c(Br)ccc2c1C(=Cc1cc(Cl)ccc1O)C(=O)N2` ?
38.1

Biochem EGFR % Inhibition (P.167) for `O=C1Nc2c(Br)cc(Br)cc2C1=Cc1ccccc1C(F)(F)F` ?
24.2

Biochem EGFR % Inhibition (P.167) for `Cc1c(Br)cc(Br)c2c1C(=Cc1ccc(-c3ccccc3Cl)o1)C(=O)N2` ?
−3.2

Biochem EGFR % Inhibition (P.167) for `Cc1cc(O)cc(O)c1C=C1C(=O)Nc2c(Br)cc(Br)c(C)c21` ?
−55.8
